Reference for the values: the RNAGym collection of RNA variant scans (doi:10.1073/pnas.2313332121)

B1: TPR t1 (parent)
chain: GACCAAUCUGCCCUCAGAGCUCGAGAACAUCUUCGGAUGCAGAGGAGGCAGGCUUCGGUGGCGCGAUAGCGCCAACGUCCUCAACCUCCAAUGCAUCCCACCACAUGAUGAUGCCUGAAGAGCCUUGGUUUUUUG

variants of: B1; experiment: polymerase ribozyme fitness, log enrichment relative to wild type (log ratio); higher = more active; in vitro selection for triplet polymerase activity
polymerase ribozyme fitness (log ratio) of -2 or higher: criterion met. Under -2: criterion not met.

1) C15A C56G	criterion not met
2) C8G G45C G51U G65A G113U C123U	criterion not met
3) C11G A68G U81A U106A G110A G113U A121G	criterion not met
4) C86G A111G G135A	criterion met
5) G10A G42U C85G	criterion met
6) C13A C85G C123U	criterion met
7) C11G C12A G51A C80A U116G	criterion not met
8) C4G U96A G127U	criterion met
9) A119U A121U	criterion met
10) G51U G127A	criterion not met
11) A37U G44A	criterion not met
12) C8G C40A	criterion met
13) G35U G77C C123G	criterion not met
14) U9G C72A	criterion met
15) C20A C115U	criterion not met
16) A84G G120A	criterion met
17) G36U	criterion met
18) C12U U14G C79U	criterion met
19) A24G U131A	criterion not met
20) C13U C28A G110C G120A	criterion met
21) C72U G120C C123G	criterion met
22) U7G C13G G57A	criterion met
23) A2C C15A A27C C31A G51U A84C C99G A121U U130G	criterion not met
24) C8U G44A U109A	criterion not met
25) G63A G113U	criterion not met
26) C8A C62U A74U	criterion met
27) G17U A37C C53A A83U A90U A91C	criterion not met
28) U59C C70A	criterion not met
29) G63A U131G G135U	criterion met
30) C8U U96A U125G U131C	criterion met
31) C11A G71A	criterion met
32) A27U C97U U112A	criterion not met
33) C49A U92G	criterion not met
34) C20G U78C U109G	criterion not met
35) A2C C3U	criterion met
36) C53G G63C G93C C114A	criterion not met
37) C12A G48U	criterion not met
38) A29U G51C G120U	criterion not met
39) C12G A26G	criterion met
40) C80A A95U G120A U130G	criterion not met
41) A16C C72A	criterion not met
42) G57A A100U	criterion met
43) C49A C56U G110C	criterion not met
44) A6U G17C U130A	criterion not met
